assay: Effect on ZFP36L2 level in human MV4-11 cells assessed as fold change at 100 nM measured after 4 hrs; format: functional
value-kind: fold change (FC)

Given the molecule Cc1sc2c(c1C)C(c1ccc(Cl)cc1)=N[C@@H](CC(=O)N1CCC(CN3CCN(c4ccc5c(c4)CN(C4CCC(=O)NC4=O)C5=O)CC3)CC1)c1nnc(C)n1-2 (stereo partly specified) , what is its reported fold change (FC)?
-1

Reported fold change (FC), molecule Cc1sc2c(c1C)C(c1ccc(Cl)cc1)=N[C@@H](CC(=O)N1CCC(CN3CCN(c4cc5c(cc4F)C(=O)N(C4CCC(=O)NC4=O)C5=O)CC3)CC1)c1nnc(C)n1-2 (stereo partly specified) : ____
-1.09

Which measured fold change (FC) value corresponds to Cc1sc2c(c1C)C(c1ccc(Cl)cc1)=N[C@@H](CC(=O)N1CCC(CN3CCN(c4ccc(C5CCC(=O)NC5=O)cc4)CC3)CC1)c1nnc(C)n1-2 (stereo partly specified) ?
-1.18

Which measured fold change (FC) value corresponds to Cc1sc2c(c1C)C(c1ccc(Cl)cc1)=N[C@@H](CC(=O)N1CCC(CN3CCN(c4ccc5c(c4)oc(=O)n5C4CCC(=O)NC4=O)CC3)CC1)c1nnc(C)n1-2 (stereo partly specified) ?
-1.14

Which fold change (FC) value belongs to Cc1sc2c(c1C)C(c1ccc(Cl)cc1)=N[C@@H](CC(=O)N1CCC(CN3CCN(c4ccc(NC5CCC(=O)NC5=O)cc4)CC3)CC1)c1nnc(C)n1-2 (stereo partly specified) ?
-0.75

Return reported fold change (FC); argument: Cc1sc2c(c1C)C(c1ccc(Cl)cc1)=N[C@@H](CC(=O)N1CCC(CN3CCN(c4ccc5c(c4)n(C)c(=O)n5C4CCC(=O)NC4=O)CC3)CC1)c1nnc(C)n1-2 (stereo partly specified)
-1.03
